Biological target: wild type human RORγt LBD (Homo sapiens)
Construct: expressed in transfected cells; host or cells: HEK293T
Sequence (P51449 258-518): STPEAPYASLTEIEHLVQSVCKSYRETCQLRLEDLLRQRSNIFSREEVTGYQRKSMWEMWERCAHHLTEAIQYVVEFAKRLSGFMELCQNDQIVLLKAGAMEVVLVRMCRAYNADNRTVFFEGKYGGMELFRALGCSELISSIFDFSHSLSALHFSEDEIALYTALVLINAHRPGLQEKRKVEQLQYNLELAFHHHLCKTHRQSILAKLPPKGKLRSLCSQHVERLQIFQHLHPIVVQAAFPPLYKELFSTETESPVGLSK
Experiment: RORγt (LBD) Reporter Assay (GAL4-luciferase, HEK293T cells)
Format: cell-based
Conditions: 6 µM compound concentration; 6 µM
Can you tell me RORγt (LBD) Reporter Assay, % inhibition @ 6 µM for the items I'm about to list?
For clarity, give the value followed by its unit.

Provide RORγt (LBD) Reporter Assay, % inhibition @ 6 µM for all items below, preserving their order.
1. COc1nc2ccc(C(O)(c3ccc(Cl)cc3)c3cncn3C)cc2c(C#N)c1Cc1ccc(C(F)(F)F)cc1 (single isomer, unassigned) [Example 55c]
2. Cn1cc(-c2nc3ccc(C(O)(c4ccc(C(F)(F)F)nc4)c4cncn4C)cc3c(C#N)c2Cc2ccccc2)cn1 (single isomer, unassigned) [Example 112b]
3. Cn1cncc1C(O)(c1ccc(C(F)(F)F)nc1)c1ccc2nc(C(F)(F)F)c(Cc3ccccc3)c(C#N)c2c1 (single isomer, unassigned) [Example 108b]

Out:
100%
92%
55%

Kindly note the recorded RORγt (LBD) Reporter Assay, % inhibition @ 6 µM for COc1nc2ccc(C(O)(c3cnnn3C)c3cnc(C)n3C)cc2c(Cl)c1Cc1ccc(F)cc1 (single isomer, unassigned) [Example 65c] , which is 81%

---

Can you tell me inhibition at 6 µM for the items I'm about to list?
biological target: wild type human RORγt LBD (Homo sapiens); construct: expressed in transfected cells; host or cells: HEK293T; experiment: RORγt (LBD) Reporter Assay (GAL4-luciferase, HEK293T cells); assay type: cell-based; settings: HEK-293T, read-out: RORγt (LBD) Reporter Assay, % inhibition @ 6 µM, 6 µM compound concentration
Give bare numbers, in %.

MOLECULE: COc1nc2ccc(C(O)(c3cncn3C)C3CCOCC3)cc2c(C#N)c1Cc1ccc(-n2cccn2)cc1 (stereo not drawn)
TEST_VALUE: 101

Provide inhibition at 6 µM for all items below, preserving their order.
1. COc1nc2ccc(C(O)(c3ccc(C)nc3C)c3cnnn3C)cc2c(C#N)c1Cc1ccc(C(F)(F)F)nc1 (single isomer, unassigned) [Example 41b]
2. COc1nc2ccc(C(O)(c3cnnn3C)C3CCOCC3)cc2c(Cl)c1Cc1ccc(C(F)(F)F)cc1 (single isomer, unassigned) [Example 85b]
3. COc1nc2ccc(C(O)(c3ccc(C)nc3C)c3cnnn3C)cc2c(Cl)c1Cc1ccc(C)cc1 (single isomer, unassigned) [Example 20b]
4. COc1nc2ccc(C(O)(c3ccc(C)nc3C)C3CN(C(C)=O)C3)cc2c(Cl)c1Cc1ccc(C(F)(F)F)cc1 (racemic) [Example 87a]
5. Cn1cncc1C(O)(c1ccc(Cl)cc1)c1ccc2nc(C(F)(F)F)c(Cc3ccccc3)c(Cl)c2c1 (stereo not drawn)

Out:
1. 92
2. 99
3. 84
4. 100
5. 78

---

Can you tell me inhibition at 6 µM for the items I'm about to list?
biological target: wild type human RORγt LBD (Homo sapiens); construct: expressed in transfected cells; host or cells: HEK293T; experiment: RORγt (LBD) Reporter Assay (GAL4-luciferase, HEK293T cells); format: cell-based; conditions: HEK-293T, read-out: RORγt (LBD) Reporter Assay, % inhibition @ 6 µM, 6 µM compound concentration
One number for each entry, in %.

Worked examples, 5 compounds total:
COMPOUND: COc1nc2ccc(C(O)(c3sc(C)nc3C)c3cnnn3C)cc2cc1Cc1ccc(C(F)(F)F)cc1 (single isomer, unassigned) [Example 92b]
ASSAYED_TARGET: wild type human RORγt LBD (Homo sapiens)
inhibition at 6 µM [%]: 79
--
COMPOUND: COc1nc2ccc(C(N)(c3ccc(C(F)(F)F)nc3)c3cncn3C)cc2c(Cl)c1Cc1cc2ccccc2s1 (racemic) [Example 71a]
ASSAYED_TARGET: wild type human RORγt LBD (Homo sapiens)
inhibition at 6 µM [%]: 98
--
COMPOUND: CCCCc1nc2ccc(C(O)(c3cccnc3)c3cccc(F)c3)cc2c(Cl)c1Cc1ccc(-n2cccn2)cc1 (stereo not drawn) [Example 60]
ASSAYED_TARGET: wild type human RORγt LBD (Homo sapiens)
inhibition at 6 µM [%]: 83
--
COMPOUND: COc1nc2ccc(C(O)(c3ccc(C)nc3C)c3cnnn3C)cc2c(Cl)c1Cc1ccc(C)cc1 (stereo not drawn) [Example 20a]
ASSAYED_TARGET: wild type human RORγt LBD (Homo sapiens)
inhibition at 6 µM [%]: 91
--
COMPOUND: COc1nc2ccc(C(O)(c3ccc(C#N)cc3)c3cncn3C)cc2c(C#N)c1Cc1ccc(-n2cncn2)cc1 (single isomer, unassigned) [Example 15b]
ASSAYED_TARGET: wild type human RORγt LBD (Homo sapiens)
inhibition at 6 µM [%]: 99

Kindly note the recorded inhibition at 6 µM for COc1nc2ccc(C(O)(c3cnnn3C)C3CCN(C(C)=O)CC3)cc2c(Cl)c1Cc1ccc(C(F)(F)F)cc1 (single isomer, unassigned) [Example 74b] , which is 102

---

biological target: wild type human RORγt ligand binding domain (RORyt LBD) (Homo sapiens); construct: His-tag (N); TurboTEV protease cleavage site (ENLYFQG) (N); assay: RORγt ThermoFluor assay (thermal shift, binding affinity KD)
ENDPOINT_LABEL: pKd
Answers are plain numbers, as −log10 of the molar value.

Worked examples, 3 compounds total:
COMPOUND: COc1nc2ccc(C(O)(c3ccc(C)nc3C)c3cnnn3C)cc2c(Cl)c1Cc1ccc(C)cc1 (single isomer, unassigned) [Example 20c]
ENDPOINT_LABEL: pKd
TEST_VALUE: 9.21

COMPOUND: Cn1cncc1C(O)(c1ccc2nc(C(F)(F)F)c(Cc3ccccc3)c(C#N)c2c1)c1ccccn1 (single isomer, unassigned) [Example 99c]
ENDPOINT_LABEL: pKd
TEST_VALUE: 7.92

COMPOUND: Cn1cncc1C(O)(c1ccc(C(F)(F)F)nc1)c1ccc2nc(N3CCOCC3)c(Cc3ccc(-n4cccn4)cc3)c(Cl)c2c1 (single isomer, unassigned) [Example 146c]
ENDPOINT_LABEL: pKd
TEST_VALUE: 6.22

Provide pKd for all items below, preserving their order.
1. COc1nc2ccc(C(O)(c3ccc(C#N)cc3)c3cncn3C)cc2c(Cl)c1Cc1ccc(-n2cncn2)cc1 (single isomer, unassigned) [Example 14b]
2. COc1nc2ccc(C(O)(c3ccc(C)nc3C)c3cnnn3C)cc2c(Cl)c1Cc1ccc(N(C)C)cc1 (single isomer, unassigned) [Example 24b]
3. CCc1nc2ccc(C(O)(c3cnnn3C)c3cnc(C)n3C)cc2c(Cl)c1Cc1ccc(C(F)(F)F)cc1 (single isomer, unassigned) [Example 25c]

Out:
1. 6.85
2. 6.89
3. 10.70

---

target: wild type human RORγt LBD (Homo sapiens, UniProt P51449); construct: expressed in transfected cells; host or cells: HEK293T; assay: RORγt (LBD) Reporter Assay (GAL4-luciferase, HEK293T cells); type: cell-based; settings: 6 µM compound concentration; 6 µM
Can you tell me RORγt (LBD) Reporter Assay, % inhibition @ 6 µM for the items I'm about to list?
Answers are plain numbers, in %.

Worked examples, 5 compounds total:
COMPOUND: COc1nc2ccc(C(O)(c3ccc(C#N)cc3)c3cncn3C)cc2c(Cl)c1Cc1ccc(C(F)(F)F)nc1 (single isomer, unassigned) [Example 38c]
TEST_VALUE: 98
--
COMPOUND: COc1nc2ccc(C(N)(c3ccc(C(F)(F)F)nc3)c3cncn3C)cc2c(Cl)c1Cc1cc2ccccc2s1 (single isomer, unassigned) [Example 71c]
TEST_VALUE: 94
--
COMPOUND: Cn1cncc1C(O)(c1ccc(C(F)(F)F)nc1)c1ccc2nc(C(F)(F)F)c(Cc3ccccc3)c(C#N)c2c1 (single isomer, unassigned) [Example 108c]
TEST_VALUE: 83
--
COMPOUND: Cn1cc(-c2nc3ccc(C(O)(c4ccc(C(F)(F)F)nc4)c4cncn4C)cc3c(Cl)c2Cc2ccccc2)cn1 (single isomer, unassigned) [Example 111c]
TEST_VALUE: 92
--
COMPOUND: COc1nc2ccc(C(O)(c3ccc(F)cc3)C3CCN(C(C)=O)CC3)cc2c(Cl)c1Cc1ccc(F)cc1 (single isomer, unassigned) [Example 51c]
TEST_VALUE: 4

Field: next compound
Kindly note the recorded RORγt (LBD) Reporter Assay, % inhibition @ 6 µM for COc1nc2ccc(C(O)(c3ccccc3)C3CCN(C(C)=O)CC3)cc2c(Cl)c1Cc1ccc(-n2ccnc2)cc1 (stereo not drawn) [Example 16c] , which is 100

Every entry's value here was drawn from patent EP3057951B1.
